# System: MOLT-4 leukemia
# Assay overview: NCI-60 one-dose screen, 48 h (100 = growth as untreated, 0 = no growth, -100 = all killed)
# Condition description: 10 µM unless noted
About 83,000 compounds went through this panel and 20% of them were active in at least one assay; those are over-represented in the sample as a whole.
Observed property: growth (%)
State just the number; it will be interpreted in %.

Example cases with answers are listed next.
[[record]]
compound = "C=CC(=O)N[C@H](Cc1ccc(-c2cc(Cl)cc(Cl)c2)cc1)[C@H](O)[C@@H](O)C(=O)O"
measured_result = 102

[[record]]
compound = "Cc1ccc(-c2ccc(Nc3ccccc3)nn2)cc1S(N)(=O)=O"
measured_result = 62.2

[[record]]
compound = "CC1(C)C(=O)/C(=C\\c2ccccn2)C[C@]2(C)[C@H]3CC[C@@H]4[C@@H](C(=O)/C=C/c5ccccn5)CC[C@@]4(C)[C@]3(C)CC[C@@H]12"
measured_result = 7.28

[[record]]
compound = "Clc1ccccc1-c1nc(Nc2nc3ccccc3s2)nc(C(Cl)(Cl)Cl)n1"
measured_result = 86.3

[[record]]
compound = "CN(C)c1ccc(C(=O)c2ccc(N(C)C)c(N)c2)cc1N"
measured_result = 24.4


Please examine the following record next.
Exam item: Give growth (MOLT-4 leukemia) of the following compound: CN(C)c1cccc2[nH]c(-c3[nH]ncc3Nc3ccnc(N)n3)nc12
Marked response: 1.65

###

# Tested on: SNB-19 CNS
# Assay overview: NCI-60 one-dose screen, 48 h
# Condition description: 10 µM unless noted
About 83,000 compounds went through this panel and 20% of them were active in at least one assay; those are over-represented in the sample as a whole. The source made the active and inactive calls. How the source made its calls: active means growth percent below 10; inactive means the rest.
Just give me one of these, please: Y for active, N for inactive

[[record]]
compound = "CC/C=C\\C[C@H]1CC=C2C(=O)C=C[C@@H]2CC=CCCCC(=O)O[C@@H](CCCCC)CC=C2C(=O)C=C[C@@H]2CC=CCCCC(=O)O[C@@H](CCCCC)CC=C2C(=O)C=C[C@@H]2CC=CCCCC(=O)O[C@@H](CCCCC)CC=C2C(=O)C=C[C@@H]2CC=CCCCC(=O)O1"
label_value = "N"

[[record]]
compound = "Cn1cc(-c2csc(-c3c[nH]c4ccccc34)n2)c2cccnc21"
label_value = "N"

[[record]]
compound = "C[C@@H](C(=O)O)c1ccc2c3cc(Cl)ccc3n(Cc3cc(=O)oc4ccc(Cl)cc34)c2c1"
label_value = "N"

[[record]]
compound = "O=C1/C(=C\\c2ccc(Br)o2)SC(=S)N1CCc1ccc(O)cc1"
label_value = "N"


Exam item: Dear colleague, could you share the recorded outcome for CN1CCN(c2nc(-c3cccc4ccccc34)nc3sc4c(c23)CCCCCC4)CC1 when you have a moment?
Marked response: N

Exam item: Another compound to check: COc1ccc(O)c(-c2cc(-c3ccc(Cl)cc3)c(C#N)c(=O)[nH]2)c1
Marked response: N

Exam item: Another compound to check: CCN1CCN(C(=O)[C@]23CCC(C)(C)C[C@H]2C2=CC[C@@H]4[C@@]5(C)CC/C(=N/O)C(C)(C)[C@@H]5CC[C@@]4(C)[C@]2(C)CC3)CC1
Marked response: N

Exam item: Another compound to check: Cc1cc2nc3c4cc([N+](=O)[O-])cc([N+](=O)[O-])c4n(CCN(C)C)c3nc2cc1C
Marked response: N

Exam item: Another compound to check: CCC(=O)c1c(C)[nH]c(C)c1C
Marked response: N

Exam item: Another compound to check: CCC(c1ccc(OC)cc1)C(CC)c1ccc(O)c(CN2CCCCC2)c1 (stereo unspecified)
Marked response: N

Exam item: Another compound to check: Cn1cc(-c2csc(-c3c[nH]c4ccc(F)cc34)n2)c2cccnc21
Marked response: N

Exam item: Another compound to check: COc1ccc(-c2nc3ccccn3c2-c2nc3ccc(Cl)cc3[nH]2)cc1
Marked response: N

###

# Test system: NCI-H23 lung
# Assay overview: NCI-60 one-dose screen, 48 h (100 = growth as untreated, 0 = no growth, -100 = all killed)
# Condition description: 10 µM unless noted
About 83,000 compounds went through this panel and 20% of them were active in at least one assay; those are over-represented in the sample as a whole. Calls of active or inactive are those of the source. How the source made its calls: active means growth percent below 10; inactive means the rest.
Items are presented alongside their recorded growth.

[[record]]
compound = "NC(=O)NCC1CCCCC1"
measured_result = "90.7% (inactive)"

[[record]]
compound = "C[C@@H]1CCCCCCCCC[C@H](O)C(=O)C[C@@H](SC[C@@H](O)C(=O)O)C(=O)O1"
measured_result = "96.5% (inactive)"


Exam item: Dear colleague, I am looking for the recorded growth of the following compound: CC1(C)C(=O)/C(=C\c2ccccn2)C[C@]2(C)[C@H]3CC[C@@H]4[C@@H](C(=O)/C=C/c5ccccn5)CC[C@@]4(C)[C@]3(C)CC[C@@H]12
Marked response: -49.2% (active)

###

# Tested on: CCRF-CEM leukemia
# Assay overview: NCI-60 one-dose screen, 48 h (100 = growth as untreated, 0 = no growth, -100 = all killed)
# Condition description: 10 µM unless noted
About 83,000 compounds went through this panel and 20% of them were active in at least one assay; those are over-represented in the sample as a whole.
Observed property: growth (%)
State just the number; it will be interpreted in %.

Exam item: Dear colleague, I am looking for the recorded growth of the following compound: C=C(C)[C@@H]1CC[C@]2(C=O)CC[C@]3(C)[C@H](CC[C@@H]4[C@@]5(C)C/C(=C/c6cccnc6)C(=O)C(C)(C)[C@@H]5CC[C@]43C)[C@@H]12
Marked response: 27.7

Exam item: Another compound to check: CCCCC(=O)OC1CCCCC1C (stereo unspecified)
Marked response: 94.3

Exam item: Another compound to check: Clc1ccccc1-c1nc(Nc2nc3ccccc3s2)nc(C(Cl)(Cl)Cl)n1
Marked response: 92.5

Exam item: Another compound to check: CC(CNc1nc(Nc2ccc(Cl)c(Cl)c2)nc(C(Cl)(Cl)Cl)n1)N(C)C (stereo unspecified)
Marked response: -3.41

Exam item: Another compound to check: Cc1cc(N2CCCCC2)nc(N(CCNc2ccnc3cc(Cl)ccc23)Cc2ccco2)n1
Marked response: 10.2

Exam item: Another compound to check: COc1ccc(CCN2C(=O)C(C)(C)SC2=S)cc1OC
Marked response: 92.3

Exam item: Another compound to check: CCCCN1CCCCn2c1nc1c2c(=O)n(C)c(=O)n1C
Marked response: 113

Exam item: Another compound to check: CC(C)(C)c1ccc(OCCCCCCCN2CCNCC2)cc1
Marked response: 17.8

Exam item: Another compound to check: NC1=C(C/C(N)=N\O)C(c2ccccc2Cl)c2c(ccc3ccccc23)O1 (stereo unspecified)
Marked response: 79.8

Exam item: Another compound to check: O=S(=O)(NCCNc1cc(-c2cn(-c3ccccc3)nc2-c2cccc(O)c2)ccn1)c1ccc(Br)cc1
Marked response: 9.77

Exam item: Another compound to check: C[C@H]1[C@@H]2[C@H]3CC[C@@H]4[C@@]5(C)Cc6c([nH]c7ccccc67)C(C)(C)[C@@H]5CC[C@@]4(C)[C@]3(C)CC[C@]23CO[C@]1(C)[C@@H](C(=O)/C=C/c1ccccn1)C3
Marked response: 63

Exam item: Another compound to check: C=C(C)[C@@H]1CC[C@]2(C)[C@H](CC=C3[C@@H]4CC(C)(C)CC[C@]4(C(=O)OC)CC[C@]32C)[C@@]1(C)CC/C(N)=N/O
Marked response: 37.3

Exam item: Another compound to check: C/C(=N\Nc1ccc2ccccc2n1)c1ccccn1
Marked response: -5.75

###

# System: SF-539 CNS
# Assay overview: NCI-60 one-dose screen, 48 h
# Condition description: 10 µM unless noted
About 83,000 compounds went through this panel and 20% of them were active in at least one assay; those are over-represented in the sample as a whole. Calls of active or inactive are those of the source. The calls were made as follows: active = growth percent below 10; inactive = the rest.
Just give me one of these, please: active, inactive

Previously resolved entries follow.
[[record]]
compound = "NC(=O)NCC1CCCCC1"
label_value = "inactive"

[[record]]
compound = "COc1ccc(C(=O)c2ccc(C)cc2)c(OC)c1OC"
label_value = "inactive"

[[record]]
compound = "CC1c2ccccc2N(S(=O)(=O)c2ccccc2)C1C (configuration not stated)"
label_value = "inactive"


Exam item: Dear colleague, could you share the recorded outcome for COc1cc(-c2cc3ncccc3c3nc(OCCN(C)C)c4cccnc4c23)cc(OC)c1OC when you have a moment?
Marked response: inactive

Exam item: Another compound to check: Cn1cc(-c2csc(-c3cn(CCN)c4ccccc34)n2)c2cccnc21
Marked response: inactive

Exam item: Another compound to check: COc1cc(OC)c2c(c1)c1nc3cc(C)c(C)cc3nc1n2CCN(C)C
Marked response: inactive

Exam item: Another compound to check: N#Cc1c(-c2ccco2)nc2c(c(-c3ccccc3)nn2-c2ccccc2)c1-c1ccc(O)cc1
Marked response: inactive

Exam item: Another compound to check: Cn1c2ccccc2c2c3c(c4c5cccnc5[nH]c4c21)C(=O)N(O)C3=O
Marked response: inactive

Exam item: Another compound to check: NC1=NN=C2N(N)C(=O)c3cnn(-c4ccccc4)c3N2c2nc(-c3ccccc3)cc(-c3ccccc3)c21
Marked response: inactive

Exam item: Another compound to check: Cc1ccc(N(CC(=O)Nc2ccc(S(=O)(=O)NC3CCN(C)CC3)cc2)S(=O)(=O)c2ccc(Cl)cc2)cc1
Marked response: inactive

Exam item: Another compound to check: c1ccc2[nH]c(-c3ccc(Nc4nc(N5CCCCC5)nc(N5CCOCC5)n4)cc3)nc2c1
Marked response: active

Exam item: Another compound to check: O=c1[nH]ncc(Br)c1Br
Marked response: inactive

Exam item: Another compound to check: COc1cc(-c2c(C#N)c(-c3cccs3)nc3c2c(-c2ccccc2)nn3-c2ccccc2)ccc1O
Marked response: inactive

Exam item: Another compound to check: Nc1ccc(Cl)cn1
Marked response: inactive

Exam item: Another compound to check: Cn1cc(-c2csc(-c3cn(CCCN4CCCCC4)c4ccc(F)cc34)n2)c2cccnc21
Marked response: inactive

Exam item: Another compound to check: Cc1ccc(S(=O)(=O)Nc2ccc(-c3cc(-c4cccc(F)c4)c(C#N)c(=O)[nH]3)cc2)cc1
Marked response: inactive

Exam item: Another compound to check: Nc1c(Cl)cc(N=Nc2ccccc2)cc1Cl
Marked response: inactive

These measurements were taken from PubChem BioAssay (NCI).
